Molecular target: T1, IL-11R on STAT3 Reporter (Luciferase)-HEK293 cells (UniProt Q14626 23-422)
T1 sequence (looked up): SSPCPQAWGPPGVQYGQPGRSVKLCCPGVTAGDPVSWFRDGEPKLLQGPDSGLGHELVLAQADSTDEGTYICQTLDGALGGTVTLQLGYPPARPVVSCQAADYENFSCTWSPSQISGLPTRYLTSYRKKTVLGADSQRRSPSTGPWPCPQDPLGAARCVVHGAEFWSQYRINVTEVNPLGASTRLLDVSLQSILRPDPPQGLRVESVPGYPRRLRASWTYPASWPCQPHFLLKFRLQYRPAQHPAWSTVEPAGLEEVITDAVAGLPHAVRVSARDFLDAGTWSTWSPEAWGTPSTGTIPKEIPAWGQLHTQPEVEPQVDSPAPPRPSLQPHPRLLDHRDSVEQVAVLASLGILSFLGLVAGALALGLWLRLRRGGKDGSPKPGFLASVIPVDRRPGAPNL
Test: cell-based or functional assay
Below, each entry is listed alongside its reported IC50, STAT3 luciferase reporter assay (HEK293), inhibiting IL-11, Assay 1.
Give the quantity in µg/mL, number only.

binder	reported
mAb10 (antibody, V domains shown, Expressed as human IgG4 (S228P EU)) VH: EVQLLESGGGLVQPGGSLRLSCAASGFTFSWYSMTWVRQAPGKGLEWVSSIVAYGDLTQYADSVKGRFTISRDNSKNTLYLQMNSLRAEDTAVYYCAKGPGWGSFDLWGRGTLVTVSS VL: DIQMTQSPSSLSASVGDRVTITCQASQDINNYLNWYQQKPGKAPKLLIYDASNLQTGVPSRFSGSGSGTDFTFTISSLQPEDIATYYCQQHESQSPTFGPGTKVDIK	2
mAb5 (antibody, V domains shown, Expressed as human IgG4 (S228P EU); also called mAb5 IL11RA Ab) VH: EVQLLESGGGLVQPGGSLRLSCAASGFTFSWYSMTWVRQAPGKGLEWVSSIVPYGDLTQYADSVKGRFTISRDNSKNTLYLQMNSLRAEDTAVYYCAKGPGWGSFDLWGRGTLVTVSS VL: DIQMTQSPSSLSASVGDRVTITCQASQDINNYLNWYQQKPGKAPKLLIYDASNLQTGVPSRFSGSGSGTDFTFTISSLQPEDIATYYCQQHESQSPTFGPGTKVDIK	0.16

Now look at this one.
Ask: Let me know recorded IC50, STAT3 luciferase reporter assay (HEK293), inhibiting IL-11, Assay 1 for mAb7 (antibody, V domains shown, Expressed as human IgG4 (S228P EU)) VH: EVQLLESGGGLVQPGGSLRLSCAASGFTFSNYAMSWVRQAPGKGLEWVSSIVPYGDLTQYADSVKGRFTISRDNSKNTLYLQMNSLRAEDTAVYYCAKGPGWGSFDLWGRGTLVTVSS VL: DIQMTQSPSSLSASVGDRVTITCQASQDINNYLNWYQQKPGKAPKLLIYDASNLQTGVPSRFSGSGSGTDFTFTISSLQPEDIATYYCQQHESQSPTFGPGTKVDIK , thanks.
Reply: 1

Data credit: patent US20240425606A1
